- protocol description: chemical genetic growth profiling, strain panel (AID 1159580);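 note: tested at 20 µM; growth read once vehicle control cultures reached saturation at 30 °C; 1 = growth at the plate median or of vehicle wells; lower values mean less growth of the strain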
- protocol conditions: S. cerevisiae deletion strains, growth OD, locus YER015W, strain faa2
In all, about 5,500 compounds went through this assay and about 2,000 (36%) were called active. Another 18% or so got no clear call; they are omitted. Cut-off read from the data, not from the text of the source: active = normalized growth mostly below about 0.91 (no sharp cut-off); inconclusive = no clear call, values can overlap the other calls; inactive = mostly above about 0.92. The list shows a part of the results.
Result category, one only: active, inactive

query: Could you check what this test reported for `Cc1cc(O)c2c(c1)C(=O)c1cccc(O)c1C2=O` ?
result: inactive

query: Check CN1CCCCC1c1ccc(-c2cccnc2)nc1 (stereo not drawn) too.
result: inactive

query: Check `O=C(/C=C/c1ccccc1)c1ccc(O[C@@H]2O[C@H](CO)[C@@H](O)[C@H](O)[C@H]2O)cc1O` too.
result: inactive

query: Check `O=c1c(O)c(-c2ccccc2)oc2ccccc12` too.
result: active

query: Check `O=C(O)c1cccnc1C(=O)O` too.
result: inactive

query: Check `COc1ccc(-c2c(O)c3c(OC)c4c(cc3oc2=O)OC(C)(C)C=C4)cc1` too.
result: inactive

query: Check `CC[C@H]1OC(=O)[C@H](C)[C@@H](O[C@H]2C[C@@](C)(OC)[C@@H](O)[C@H](C)O2)[C@H](C)[C@@H](O[C@@H]2O[C@H](C)C[C@H](N(C)C)[C@H]2O)[C@](C)(O)C[C@@H](C)/C(=N/OCOCCOC)[C@H](C)[C@@H](O)[C@]1(C)O` too.
result: inactive

----------
- protocol description: chemical genetic growth profiling, strain panel (AID 1159580)
- protocol conditions: S. cerevisiae deletion strains, growth OD, locus YDL101C, strain DUN1, hits give low values
Screen size: about 5,500 compounds; about 2,000 (36%) were called active. About 18% were inconclusive and are not listed. Some of the results follow.
// boundary case: normalized growth equal to 1 maps to n; strictly smaller maps to y

Here's what some known entries look like.
mol_smiles=Cc1cc(C)c2cc(C(=O)NCCNc3ccc(C(F)(F)F)cn3)[nH]c2c1 category_label=y
mol_smiles=COc1ccccc1C1CCN(c2ncnc3scc(-c4ccccc4)c23)CC1 category_label=n

query: For `COc1cc(C2SCCS2)cc(Br)c1OC(=O)NC(=O)c1c(Cl)cccc1Cl` , is the recorded normalized growth below the cut-off of 1?
result: y

----------
- protocol description: chemical genetic growth profiling, strain panel (AID 1159580)
- protocol conditions: S. cerevisiae deletion strains, growth OD, locus YNL020C, strain ARK1
Out of some 5,500 compounds screened, about 2,000 (36%) were called active. Not shown: some 18% with an inconclusive outcome. No stated cut-off is given here; in the data, active means normalized growth mostly below about 0.91 (no sharp cut-off); inconclusive means no clear call, values can overlap the other calls; inactive means mostly above about 0.92. The list shows a part of the results.
Result category, one only: active, inactive

Here's what some known entries look like.
compound=COc1ccc(Oc2ccc([N+](=O)[O-])cc2C(=O)O/N=C(/N)c2ccc(C(F)(F)F)cc2)cc1 category_label=inactive
compound=COC(=O)c1cccc(NS(=O)(=O)c2ccc(Cl)c(Cl)c2)c1 category_label=inactive
compound="C=CCC1C(=O)N(S(=O)(=O)c2ccc(Cl)cc2)N=C1CCC (configuration not stated)" category_label=inactive
compound=O=S(=O)(Nc1c(F)cccc1F)c1ccc(Cl)c(Cl)c1 category_label=inactive
compound=Cc1cc2nc3c(Cl)c(O)c4ccccc4c3nc2cc1C category_label=active

query: Could you check what this test reported for `CC(C)c1cccc(C(C)C)c1OC(=O)NC(=O)c1c(Cl)cccc1Cl` ?
result: inactive

query: Check `CC(C)(C)c1ccc(-c2cc(NC(=O)c3ccc(Cl)cc3)n[nH]2)cc1` too.
result: inactive

query: Check `Cc1csc2ncnc(N3CCN(C(=O)Nc4ccc(SC(F)(F)F)cc4)CC3)c12` too.
result: inactive

query: Check `Cc1oc(C(C)(C)C)cc1-c1cc(NC(=O)c2ccccc2)n[nH]1` too.
result: inactive

query: Check `Cc1csc2ncnc(N3CCN(C(=S)Nc4ccc(C(F)(F)F)cc4)CC3)c12` too.
result: inactive

query: Check `Cc1csc2c(N3CCN(C(=S)Nc4ccc(C(F)(F)F)cc4)CC3)ncnc12` too.
result: inactive

query: Check `Cc1cc(C)c2cc(C(=O)NCCNc3ccc(C(F)(F)F)cn3)[nH]c2c1` too.
result: active

----------
- protocol description: chemical genetic growth profiling, strain panel (AID 1159580);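 note: tested at 20 µM; growth read once vehicle control cultures reached saturation at 30 °C; 1 = growth at the plate median or of vehicle wells; lower values mean less growth of the strain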
- protocol conditions: S. cerevisiae deletion strains, growth OD, locus YNL209W, strain ssb2, hits give low values
The campaign covered roughly 5,500 compounds. About 2,000 (36%) were called active. Not shown: some 18% with an inconclusive outcome. The list shows a part of the results.
Catalogue of compounds with associated normalized growth

compound=COc1ccc([C@@H](C)C(=O)c2ccc(O)cc2O)cc1 measured_result="0.975 (inactive)"
compound="CC1CC(OC(=O)c2ccccc2O)CC(C)(C)C1 (centres undefined)" measured_result="0.983 (inactive)"
compound="CC(=CC1CCC(C)C2CCC(C)=C12)C(=O)O (centres undefined)" measured_result="0.978 (inactive)"
compound=COc1cc([C@@H]2c3cc4c(cc3[C@H](O)[C@H]3COC(=O)[C@H]23)OCO4)cc(OC)c1OC measured_result="1.02 (inactive)"
compound=O=C(O)CCC(=O)OC[C@@H](NC(=O)C(Cl)Cl)[C@H](O)c1ccc([N+](=O)[O-])cc1 measured_result="0.971 (inactive)"

query: GET /values?readout=normalized growth&item= `O=C(CCc1ccc(O)cc1)c1c(O)cc(O)cc1O`
result: 1 (inactive)

query: Check `COc1cc(O)ccc1C(C)=O` too.
result: 1.02 (inactive)

query: Check `O=C(N[C@@H](CO)[C@H](O)c1ccc([N+](=O)[O-])cc1)C(Cl)Cl` too.
result: 1.03 (inactive)

query: Check `CC(C)[C@@H]1CC[C@@H](C)C[C@H]1OC(=O)c1ccccc1` too.
result: 1 (inactive)

----------
- protocol description: chemical genetic growth profiling, strain panel (AID 1159580);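 note: tested at 20 µM; growth read once vehicle control cultures reached saturation at 30 °C; 1 = growth at the plate median or of vehicle wells; lower values mean less growth of the strain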
- protocol conditions: S. cerevisiae deletion strains, growth OD, locus YLR039C, strain RIC1, hits give low values
The campaign covered roughly 5,500 compounds. About 2,000 (36%) were called active. Inconclusive results (about 18%) are left out. This is one part of the list.
// boundary case: normalized growth equal to 0.9 maps to NO; strictly smaller maps to YES

query: For `CCCN(CCC)c1c([N+](=O)[O-])cc(C(F)(F)F)cc1[N+](=O)[O-]` , is the recorded normalized growth below the cut-off of 0.9?
result: NO

query: Check `Cc1onc(-c2c(Cl)cccc2Cl)c1C(=O)N1CCN(c2ncnc3scc(-c4ccccc4)c23)CC1` too.
result: NO

query: Check `Nc1cccc2c1C(=O)c1ccccc1-2` too.
result: YES

query: Check `O=c1c(O)c(-c2ccccc2)oc2ccccc12` too.
result: NO

query: Check `COc1ccc(CC(=O)c2ccc(O)cc2O)cc1` too.
result: YES

query: Check ClC1C(Cl)C(Cl)C(Cl)C(Cl)C1Cl (configuration not stated) too.
result: YES

query: Check `O=C1c2ccccc2C(=O)N1CNc1cccc(Cl)c1` too.
result: NO

query: Check `Cc1c(C)c(C)c(S(=O)(=O)Nc2ccccc2N)c(C)c1C` too.
result: NO

query: Check C=CC1CN2CCC1CC2C(OC(C)=O)c1ccnc2ccc(OC)cc12 (configuration not stated) too.
result: NO

query: Check C[N+]1(C)CCCC(OC(=O)C(O)(c2ccccc2)c2ccccc2)C1 (configuration not stated) too.
result: NO

query: Check `CC(=O)c1ccc(Sc2ccccn2)c([N+](=O)[O-])c1` too.
result: YES

query: Check `CC(=O)Nc1c(I)cc(I)c(C(=O)O)c1I` too.
result: NO

query: Check `CN1C(=O)CC[C@H]1c1cccnc1` too.
result: NO

query: Check `CCCCC#Cc1ccc(C(=O)NNC(=O)Nc2cc(Cl)cc(Cl)c2)o1` too.
result: NO

query: Check `CC(C)N=C(N)N=C(N)Nc1ccc(Cl)cc1` too.
result: NO

query: Check `O=[N+]([O-])c1cc(C(F)(F)F)cc([N+](=O)[O-])c1Oc1ccc(Cl)c(Cl)c1` too.
result: YES

query: Check CC(=O)OC[C@@]1(O)C[C@@]23CCC4c5ccoc5CC[C@]4(C)C2CC[C@@H]1C3 (some centres not stated) too.
result: YES

query: Check `COc1ccccc1C1CCN(c2ncnc3scc(-c4ccccc4)c23)CC1` too.
result: NO

----------
- protocol description: chemical genetic growth profiling, strain panel (AID 1159580);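 note: tested at 20 µM; growth read once vehicle control cultures reached saturation at 30 °C; 1 = growth at the plate median or of vehicle wells; lower values mean less growth of the strain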
- protocol conditions: S. cerevisiae deletion strains, growth OD, locus YBR279W, strain paf1, hits give low values
Among all 5,500 compounds or so, about 2,000 (36%) were called active. Another 18% or so got no clear call; they are omitted. The list shows a part of the results.
endpoint: normalized growth
Field format: numeric only.

Some compounds with recorded normalized growth:
mol_smiles=O=C(O)CC[N+](=O)[O-] endpoint="normalized growth" measured_result=0.999
mol_smiles=CC(=O)NS(=O)(=O)c1ccc(N)cc1 endpoint="normalized growth" measured_result=1.01
mol_smiles=NS(=O)(=O)c1cc2c(cc1Cl)NCNS2(=O)=O endpoint="normalized growth" measured_result=0.999
mol_smiles=CC[C@H]1OC(=O)[C@H](C)[C@@H](O[C@H]2C[C@@](C)(OC)[C@@H](O)[C@H](C)O2)[C@H](C)[C@@H](O[C@@H]2O[C@H](C)C[C@H](N(C)C)[C@H]2O)[C@](C)(O)C[C@@H](C)/C(=N/OCOCCOC)[C@H](C)[C@@H](O)[C@]1(C)O endpoint="normalized growth" measured_result=1

Let's switch to this compound now.
query: GET /values?readout=normalized growth&item= `COc1cc(O)ccc1C(C)=O`
result: 1
